test-system: T1, cynomolgus CD40 overexpressed on CHO-S cells (cynomolgus, UniProt G7PG38 21-278)
T1 construct: whole, on cells; also called cynomolgus CD40 expressing CHO cells
method-summary: flow cytometry on CHO-S cells overexpressing cynomolgus CD40
Provide the reported EC50 of each item.

# annotated cases, reported EC50 shown
# binder, EC50
measured = [
    ("ADI-55145 (antibody, human IgG1, kappa, V domains shown) VH: QVQLVESGGGVVQPGRSLRLSCAASGFTFEKYGMHWVRQAPGKGLEWVAVISYEGTSKYYADSVKGRFTISRDNSKNTLYLQMNSLRAEDTAVYYCARDTSRGHDIWGQGTMVTVSS VL: EIVLTQSPGTLSLSPGERATLSCQASQSVSYNYLAWYQQKPGQAPRLLIYGASSRNNGIPDRFSGSGSGTDFTLTISRLEPEDFAVYYCQQYSDYPPFTFGGGTKVEIKR", "6.66 nM"),
    ("ADI-55144-2 (antibody, human IgG1, kappa, V domains shown) VH: QVQLVESGGGVVQPGRSLRLSCAASGFTFEKYGMHWVRQAPGKGLEWVAVISYEGTKKYYAESVKGRFTISRDNSKNTLYLQMNSLRAEDTAVYYCARDTSRGHDIWGQGTMVTVSS VL: EIVLTQSPGTLSLSPGERATLSCRASQSVSYSYLAWYQQKPGQAPRLLIYGASSLATGIPDRFSGSGSGTDFTLTISRLEPEDFAVYYCQQYSDYPPFTFGGGTKVEIKR", "15 nM"),
    ("ADI-47741 (antibody, human IgG1, kappa, V domains shown) VH: QVQLQESGPGLVKPSETLSLTCTVSGGSISSYYWSWIRQPPGKGLEWIGSIYYSGSTNYNPSLKSRVTISVDTSKNQFSLKLSSVTAADTAVYYCARDANYYKWHPYWGQGTLVTVSS VL: EIVLTQSPGTLSLSPGERATLSCRASQSVSSDYLAWYQQKPGQAPRLLIYGASSRATGIPDRFSGSGSGTDFTLTISRLEPEDFAVYYCQQVLSYPPTFGGGTKVEIKR", "17.9 nM"),
]

Query: EC50 lookup needed for ADI-55164 (antibody, human IgG1, kappa, V domains shown) VH: EVQLVESGGGLVQPGRSLRLSCAASGFTFDDYAMHWVRQAPGKGLEWVSGISWSSDSIHYADSVKGRFTISRDNAKNSLYLQMNSLRAEDTAVYYCAKDPTATTGARGYFDLWGRGTLVTVSS VL: DIQMTQSPSSVSASVGDRVTITCRASKVISSWLAWYQQKPGKAPKLLIYAASYLESGVPSRFSGSGSGTDFTLTISSLQPEDFATYYCQQHSSFPPTFGGGTKVEIKR , thanks.
Result: 8.06 nM
